These measurements were taken from PubChem BioAssay (NCI).

Tested on: UACC-257 melanoma
assay-overview: NCI tumour cell line growth inhibition, 48 h
endpoint-label: TGI

Challenge: Record request: TGI value, item Cc1cc(C)c2c(=O)cc(-c3cccc(F)c3)[nH]c2n1
Response given: > 100 µM

Challenge: Can you look up the measured TGI of CN(C)c1ccc(/C=C(\NC(=O)c2ccccc2)c2nn(C)c(=O)o2)cc1 for me?
Response given: > 100 µM

Challenge: Report TGI for Cc1[nH]nc(C(=O)n2nc(N)c3ccccc32)c1[N+](=O)[O-] please.
Response given: > 100 µM

Challenge: Please give the measured TGI for this compound: Fc1cc2[nH]ncc2c2c3c(c(-c4cn[nH]c4C(F)(F)F)nc12)C1CCC3C1 (stereo not drawn)
Response given: 4.51 µM

Challenge: Can you look up the measured TGI of COc1cc(CC(C)NC(C)=O)cc(OC)c1 (stereo not drawn) for me?
Response given: > 100 µM

Challenge: Dear colleague, I am looking for the recorded TGI of the following compound: COc1ccc(OC2OC(CO)C(OCc3ccccc3)C(OCc3ccccc3)C2OCc2ccccc2)cc1 (stereo not drawn)
Response given: > 100 µM

Challenge: I have this compound here, Cc1cc(C)c(S(=O)(=O)N(CCCN)OCCCON(CCCN)S(=O)(=O)c2c(C)cc(C)cc2C)c(C)c1 , and I need its recorded TGI.
Response given: 3.44 µM

Challenge: Entry Cc1cc(Cl)ccc1Nc1nc(C(F)(F)F)ccc1C(=O)N/N=C/c1ccc([N+](=O)[O-])cc1 : reported TGI = ?
Response given: 5.11 µM

Challenge: Fill in the blank: the reported TGI of O=C(OCCN=c1c2ccccc2ccc2ccccc12)c1ccccc1 is ____.
Response given: > 100 µM

Challenge: Look up TGI for this compound: O=C(c1ccncc1)n1nc(-c2ccccc2)c(N=Nc2ccccc2[N+](=O)[O-])c1-c1ccccc1
Response given: > 100 µM

Challenge: Query: TGI; subject: c1cncc(CC2(c3cc4ccccc4[nH]3)OCCO2)c1
Response given: > 100 µM

Challenge: Could you tell me which TGI is on file for Cc1cccc(C)c1NC(=O)C1C(=O)N(c2c(C)cccc2C)C(=O)/C1=N\NC(N)=S (stereo not drawn) ?
Response given: > 100 µM

Challenge: Recorded TGI of O=P(O)(O)c1ccccc1Oc1ccccc1 , please.
Response given: > 100 µM

Challenge: Which TGI reading was recorded for the compound CN(C)/N=C(/c1nc2ccc(Cl)cc2[nH]c1=O)C(O)c1ccc(C(O)/C(=N\N(C)C)c2nc3ccc(Cl)cc3[nH]c2=O)cc1 (stereo not drawn) ?
Response given: > 100 µM

Challenge: Fill in the blank: the reported TGI of COC(=O)Cc1ccc2c(cnn2-c2ccccc2)c1OC is ____.
Response given: > 10 µM

Challenge: Value lookup for TGI; key = CSc1cc(=O)n2c3ccccc3c3ccnc1c32
Response given: > 100 µM

Challenge: Fill in: TGI of CCOC(=O)c1cc(/C=C/C(C)=C/C(=O)OC)oc1C is ___
Response given: > 100 µM

Challenge: Entry under review: COC(=O)C1(CCCCCBr)CCCCCCCCCCC1=O (stereo not drawn) . Reported TGI?
Response given: 70.2 µM

Challenge: So what does the record say about TGI for CSC(SC)=C(C(=O)O)P(=O)(O)O ?
Response given: > 100 µM

Challenge: Entry under review: COc1ccc(C2C3=C(COC3=O)Oc3cc4c(cc32)OCO4)c(OC)c1 (stereo not drawn) . Reported TGI?
Response given: > 100 µM

Challenge: # input compound: C/C(CCc1ccccc1)=N\NC(N)=S ; wanted: its TGI
Response given: > 100 µM

Challenge: Looking for the measured TGI of CCCOc1ccc2nc(NC(=O)OC)[nH]c2c1 , can you help?
Response given: > 100 µM

Challenge: # input compound: CC1CCC2(NC1)OC1CC3C4CC=C5CC(OC6OC(CO)C(OC7OC(C)C(O)C(O)C7O)C(O)C6OC6OC(C)C(O)C(O)C6O)CCC5(C)C4CCC3(C)C1C2C (stereo not drawn) ; wanted: its TGI
Response given: 6.67 µM
